Total Impacted Cell Lines (n), LC50, Colon data for colon cancer cell lines follow.
Answers are plain numbers.

# example entries with known answers
CCCCCCCC(=O)SCC/C=C/[C@@H]1CC(=O)NCc2cc(ccn2)C2=N[C@@](C)(CS2)C(=O)N[C@@H](C(C)C)C(=O)O1 3
CCCCCCCC(=O)SCC/C=C/[C@@H]1CC(=O)NCc2cccc(n2)C2=N[C@@](C)(CS2)C(=O)N[C@@H](C(C)C)C(=O)O1 2
CCCCCCCC(=O)SCC/C=C/[C@@H]1CC(=O)NCc2nc(cs2)C2=N[C@@](C)(CS2)C(=O)N[C@@H](C(C)C)C(=O)N1 3

# ---- query compound ----
Look up Total Impacted Cell Lines (n), LC50, Colon of "CCCCCCCC(=O)SCC/C=C/[C@@H]1CC(=O)NCc2nc(co2)C2=N[C@@](C)(CS2)C(=O)N[C@@H](C(C)C)C(=O)O1" and report it. 2

====

For each entry below, report its IC50 value.
- Measured Target: HDAC2 (Homo sapiens)
- Test Method Notes: HDAC biochemical assay of O10-O12 (Table O1)
- Design: The recombinant, full-length HDAC protein (BPS Biosciences) was incubated; purchased BPS Biosciences
Give bare numbers, in µM.

# example entries with known answers
Compound	Measured Target	IC50, µM
CCCCCCCC(=O)SCC/C=C/[C@@H]1CC(=O)NCc2nc(cs2)C2=N[C@@](C)(CS2)C(=O)N[C@@H](C(C)C)C(=O)O1 [Largazole, largazole, reference compound]	HDAC2 (Homo sapiens)	0.9
CCCCCCCC(=O)SCCC=CC1CC(=O)NCc2nc(co2)C2=NC(C)(CS2)C(=O)NC(C(C)C)C(=O)O1 (stereo not drawn) [Compound O12, Thiazoline-Oxazole Thioester Analog]	HDAC2 (Homo sapiens)	2.1

# ---- query compound ----
Enter measured IC50, system HDAC2 (Homo sapiens), for the compound shown: CC(C)[C@@H]1NC(=O)[C@]2(C)CSC(=N2)c2coc(n2)CNC(=O)C[C@@H](/C=C/CCS)OC1=O [Compound O11, Thiazoline-Oxazole Thiol Analog] 0.02

====

- Measured Target: HDAC3/NCor2 (Homo sapiens, UniProt O15379)
- Construct: recombinant, full-length HDAC protein; purchased BPS Biosciences
- Sequence (O15379 whole entry): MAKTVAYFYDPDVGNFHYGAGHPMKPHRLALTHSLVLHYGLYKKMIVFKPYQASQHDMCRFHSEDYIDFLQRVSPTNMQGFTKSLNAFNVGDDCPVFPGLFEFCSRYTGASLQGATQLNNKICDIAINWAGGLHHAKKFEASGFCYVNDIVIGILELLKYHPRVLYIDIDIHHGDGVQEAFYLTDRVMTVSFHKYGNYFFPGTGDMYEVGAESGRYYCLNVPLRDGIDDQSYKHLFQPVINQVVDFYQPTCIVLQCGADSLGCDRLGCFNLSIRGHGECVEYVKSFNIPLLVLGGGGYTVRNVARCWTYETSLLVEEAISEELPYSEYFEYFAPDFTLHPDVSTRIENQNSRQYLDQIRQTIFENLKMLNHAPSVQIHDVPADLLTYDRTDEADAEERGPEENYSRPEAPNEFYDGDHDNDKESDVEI
- Sequence (Q9Y618 395-489 partner limits assumed): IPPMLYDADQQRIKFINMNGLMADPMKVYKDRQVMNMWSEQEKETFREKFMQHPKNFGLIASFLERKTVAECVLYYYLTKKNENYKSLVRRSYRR
- Test Method Notes: HDAC biochemical assay (Example 16)
- Assay Conditions: Table 4; reducing conditions (TCEP 200 μM)
Readout Kind: pIC50
Answers are plain numbers, as −log10 of the molar value.

Look up pIC50 of "C[C@@]12CSC(=N1)c1csc(n1)CNC(=O)C[C@@H](/C=C/CCS)OC(=O)[C@@H]1CCCN1C2=O" and report it. 6.24

====

Total Impacted Cell Lines (n), LC50, Renal data for renal cancer cell lines follow.
Give bare numbers.

CCCCCCCC(=O)SCC/C=C/[C@@H]1CC(=O)NCc2nc(co2)C2=N[C@@](C)(CS2)C(=O)N[C@@H](C(C)C)C(=O)O1 2
CCCCCCCC(=O)SCC/C=C/[C@@H]1CC(=O)NCc2cc(ccn2)C2=N[C@@](C)(CS2)C(=O)N[C@@H](C(C)C)C(=O)O1 2
CCCCCCCC(=O)SCC/C=C/[C@@H]1CC(=O)NCc2cccc(n2)C2=N[C@@](C)(CS2)C(=O)N[C@@H](C(C)C)C(=O)O1 2

# ---- query compound ----
Look up Total Impacted Cell Lines (n), LC50, Renal of "CCCCCCCC(=O)SCC/C=C/[C@@H]1CC(=O)NCc2nc(cs2)C2=N[C@@](C)(CS2)C(=O)N[C@@H](C(C)C)C(=O)N1" and report it. 2

====

- Measured Target: HDAC2 (Homo sapiens, UniProt Q92769)
- Sequence (Q92769 whole entry): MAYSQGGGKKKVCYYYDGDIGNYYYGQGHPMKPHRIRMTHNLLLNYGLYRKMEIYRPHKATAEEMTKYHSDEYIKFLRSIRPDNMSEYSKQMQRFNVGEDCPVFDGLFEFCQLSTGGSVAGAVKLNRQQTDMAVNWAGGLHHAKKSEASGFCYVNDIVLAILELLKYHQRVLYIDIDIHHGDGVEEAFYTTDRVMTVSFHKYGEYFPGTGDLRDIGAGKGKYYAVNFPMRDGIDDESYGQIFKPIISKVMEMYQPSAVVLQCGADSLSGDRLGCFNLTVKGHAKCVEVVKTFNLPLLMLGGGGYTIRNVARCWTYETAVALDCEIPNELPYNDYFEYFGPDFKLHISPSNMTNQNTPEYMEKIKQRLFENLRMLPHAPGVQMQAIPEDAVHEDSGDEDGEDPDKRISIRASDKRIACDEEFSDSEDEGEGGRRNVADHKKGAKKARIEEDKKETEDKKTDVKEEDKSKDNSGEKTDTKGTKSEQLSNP
- Test Method Notes: HDAC biochemical assay of P5-P12 (Table P1)
- Set-up: The recombinant, full-length HDAC protein (BPS Biosciences) was incubated; purchased BPS Biosciences
For each entry below, report its IC50 value.
For clarity, give the value followed by its unit.

Compound	Readout Kind	Observed
CCCCCCCC(=O)SCC/C=C/[C@@H]1CC(=O)NCc2nc(cs2)C2=N[C@@](C)(CS2)C(=O)N[C@@H](C(C)C)C(=O)N1 [Largazole peptide isostere]	IC50	825 nM

# ---- query compound ----
Look up IC50 of CCCCCCCC(=O)SCC/C=C/[C@@H]1CC(=O)NCc2nc(cs2)C2=N[C@@](C)(CS2)C(=O)N[C@@H](C(C)C)C(=O)O1 [Largazole, largazole, reference compound] and report it. 18.6 nM

====

- Measured Target: HDAC1 (Homo sapiens, UniProt Q13547)
- Sequence (Q13547 whole entry): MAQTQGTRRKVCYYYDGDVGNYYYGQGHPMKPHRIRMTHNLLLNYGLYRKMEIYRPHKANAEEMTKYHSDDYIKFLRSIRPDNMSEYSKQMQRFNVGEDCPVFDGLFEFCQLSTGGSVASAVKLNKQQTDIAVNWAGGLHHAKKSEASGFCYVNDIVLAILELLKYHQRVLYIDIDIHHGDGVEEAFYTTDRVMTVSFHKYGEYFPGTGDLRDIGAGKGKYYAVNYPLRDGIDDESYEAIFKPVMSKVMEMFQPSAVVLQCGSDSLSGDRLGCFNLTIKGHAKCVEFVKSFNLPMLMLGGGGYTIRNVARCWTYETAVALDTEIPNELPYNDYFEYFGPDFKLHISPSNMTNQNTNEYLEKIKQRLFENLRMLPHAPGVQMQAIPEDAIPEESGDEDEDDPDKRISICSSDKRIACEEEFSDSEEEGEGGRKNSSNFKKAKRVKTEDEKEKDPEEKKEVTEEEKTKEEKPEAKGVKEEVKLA
- Test Method Notes: HDAC biochemical assay of P5-P12 (Table P1)
- Set-up: The recombinant, full-length HDAC protein (BPS Biosciences) was incubated; purchased BPS Biosciences
Readout Kind: IC50 (nM)
Numbers only, in nM.

Compound	Measured Target	IC50 / nM
CCCCCCCC(=O)SCC/C=C/[C@@H]1CC(=O)NCc2nc(cs2)C2=N[C@@](C)(CS2)C(=O)N[C@@H](C(C)C)C(=O)O1 [Largazole, largazole, reference compound]	HDAC1 (Homo sapiens, UniProt Q13547)	10.1

# ---- query compound ----
Look up IC50 of CCCCCCCC(=O)SCC/C=C/[C@@H]1CC(=O)NCc2nc(cs2)C2=N[C@@](C)(CS2)C(=O)N[C@@H](C(C)C)C(=O)N1 [Largazole peptide isostere] and report it. 544

====

- System: NCI-60 cancer cell lines
- Test Method Notes: cells
- Assay Conditions: read-out: Average Concentration (M), GI50
Readout Kind: GI50 (M)
Numbers only, in M.

Molecule	Observed
CCCCCCCC(=O)SCC/C=C/[C@@H]1CC(=O)NCc2cccc(n2)C2=N[C@@](C)(CS2)C(=O)N[C@@H](C(C)C)C(=O)O1	7.62e-08
CCCCCCCC(=O)SCC/C=C/[C@@H]1CC(=O)NCc2nc(cs2)C2=N[C@@](C)(CS2)C(=O)N[C@@H](C(C)C)C(=O)O1 [Largazole, largazole, reference compound]	2.1e-06
CCCCCCCC(=O)SCC/C=C/[C@@H]1CC(=O)NCc2nc(co2)C2=N[C@@](C)(CS2)C(=O)N[C@@H](C(C)C)C(=O)O1	3.83e-08
CCCCCCCC(=O)SCC/C=C/[C@@H]1CC(=O)NCc2nc(cs2)C2=N[C@@](C)(CS2)C(=O)N[C@@H](C(C)C)C(=O)N1	6.56e-07

# ---- query molecule ----
Enter measured GI50, system NCI-60 cancer cell lines, for the molecule shown: "CCCCCCCC(=O)SCC/C=C/[C@@H]1CC(=O)NCc2cc(ccn2)C2=N[C@@](C)(CS2)C(=O)N[C@@H](C(C)C)C(=O)O1" 3.29e-08

====

For each entry below, report its pIC50 value.
- Measured Target: HDAC6 (Homo sapiens, UniProt Q9UBN7)
- Sequence (Q9UBN7 1-1215): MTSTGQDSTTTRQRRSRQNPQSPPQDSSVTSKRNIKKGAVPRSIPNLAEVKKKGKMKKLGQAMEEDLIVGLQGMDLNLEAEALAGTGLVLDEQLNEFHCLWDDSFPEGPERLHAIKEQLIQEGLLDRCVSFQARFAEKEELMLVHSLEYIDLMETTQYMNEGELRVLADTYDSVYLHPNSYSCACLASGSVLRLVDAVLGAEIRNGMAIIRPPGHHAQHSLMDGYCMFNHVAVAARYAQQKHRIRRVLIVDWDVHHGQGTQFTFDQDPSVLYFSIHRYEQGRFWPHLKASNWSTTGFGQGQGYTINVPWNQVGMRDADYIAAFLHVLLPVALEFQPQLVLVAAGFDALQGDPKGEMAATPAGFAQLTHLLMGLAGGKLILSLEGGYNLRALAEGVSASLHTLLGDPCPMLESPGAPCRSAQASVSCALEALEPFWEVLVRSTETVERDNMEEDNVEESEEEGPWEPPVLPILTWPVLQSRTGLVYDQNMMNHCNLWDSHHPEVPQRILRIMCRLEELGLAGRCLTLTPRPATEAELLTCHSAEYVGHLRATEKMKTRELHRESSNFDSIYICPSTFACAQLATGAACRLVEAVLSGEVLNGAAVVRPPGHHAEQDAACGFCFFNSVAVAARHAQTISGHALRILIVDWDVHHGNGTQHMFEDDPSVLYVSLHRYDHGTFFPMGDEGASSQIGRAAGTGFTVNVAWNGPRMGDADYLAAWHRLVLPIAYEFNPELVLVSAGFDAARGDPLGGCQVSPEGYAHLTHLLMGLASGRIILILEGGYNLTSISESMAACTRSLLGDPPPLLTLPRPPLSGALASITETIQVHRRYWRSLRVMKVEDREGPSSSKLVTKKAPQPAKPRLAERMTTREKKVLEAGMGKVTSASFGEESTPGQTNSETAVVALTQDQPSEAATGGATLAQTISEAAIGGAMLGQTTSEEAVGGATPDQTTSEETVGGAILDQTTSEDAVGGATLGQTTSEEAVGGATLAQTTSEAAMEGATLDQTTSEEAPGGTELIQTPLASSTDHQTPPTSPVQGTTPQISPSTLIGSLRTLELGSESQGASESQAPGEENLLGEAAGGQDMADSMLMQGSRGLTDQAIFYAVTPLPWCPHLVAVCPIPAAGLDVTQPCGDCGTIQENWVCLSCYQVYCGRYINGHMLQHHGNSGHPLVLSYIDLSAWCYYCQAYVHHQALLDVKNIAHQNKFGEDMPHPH
- Test Method Notes: HDAC biochemical assay (Example 16)
- Parameters: recombinant, full-length HDAC protein; purchased BPS Biosciences
- Assay Conditions: Table 4; reducing conditions (TCEP 200 μM)
Give bare numbers, as −log10 of the molar value.

Compound	pIC50
CC(C)[C@@H]1NC(=O)[C@]2(C)CSC(=N2)c2cccc(n2)CNC(=O)C[C@@H](/C=C/CCS)OC1=O [Thiazole-pyridine substitution (29b)]	7.54

# ---- query compound ----
Look up pIC50 of "C[C@@]12CSC(=N1)c1csc(n1)CNC(=O)C[C@@H](/C=C/CCS)OC(=O)[C@@H]1CCCN1C2=O" and report it. 4.89
